System: CHRF288-11
Set-up: species or system AML cell lines (8); Primary HTS, single concentration about 10 uM, Cell Titer Glo viability; log10 luminescence, per cent inhibition relative to cycloheximide control
Details: 72 h, relative to cycloheximide control, log10 luminescence; inhibitor
CHRF288-11 %inh for assorted compounds

INSERT INTO measurements (line_notation, reported) VALUES
  ('CN(C)CCNC(=O)Nc1ccc(N(C)c2ccnc(Nc3ccc(CS(C)(=O)=O)cc3)n2)cc1', '29.73%'),
  ('Fc1ccc(Nc2nccc(-c3c(-c4ccc(C(F)(F)F)cc4)nn4ncccc34)n2)cc1F', '-0.9437%');

# evaluate next
Enter reported CHRF288-11 %inh observed with CHRF288-11 for Cn1cnc([N+](=O)[O-])c1Sc1ncnc2[nH]cnc12
14.99%

* * *

System: CHRF288-11
Design: species or system AML cell lines (8); Primary HTS, single concentration about 10 uM, Cell Titer Glo viability; log10 luminescence, per cent inhibition relative to cycloheximide control
Settings: 72 h, relative to cycloheximide control, log10 luminescence; inhibitor
PROPERTY NAME: CHRF288-11 %inh (%)
API: value field is a number in %; no unit string.

INSERT INTO measurements (compound, property_name, quantity_unit, reported) VALUES
  ('CCOC(=O)C1=C[C@@H](OC(CC)CC)[C@H](NC(C)=O)[C@@H](N)C1 [SJ000555712-1, OSELTAMIVIR PHOSPHATE]', 'CHRF288-11 %inh', '%', -4.38),
  ('Clc1ccc(-c2nc3sccn3c2/C=N/OCc2ccc(Cl)c(Cl)c2)cc1 [SJ000546521-1, CITCO]', 'CHRF288-11 %inh', '%', 8.549),
  ('CCCCCS(=O)(=O)CCCCCCCCCCn1c(-c2ccc(O)cc2)c(C)c2cc(O)ccc21 [SJ000546504-1, ZK 164015]', 'CHRF288-11 %inh', '%', 8.284),
  ('Fc1ccc(-c2c(-c3ccncc3)nc3n2CCS3)cc1 [SJ000573197-1, EXSB/CR-9802-49AZ]', 'CHRF288-11 %inh', '%', 6.614);

We next turn to a different compound, shown below.
Recorded CHRF288-11 %inh of COc1cc(C=NNc2ncnc3c2cnn3Cc2ccccc2)ccc1O [SJ000573058-1, T237/25/8] , please.
-7.429

* * *

Test system: M07e
Set-up: species or system AML cell lines (8); Primary HTS, single concentration about 10 uM, Cell Titer Glo viability; log10 luminescence, per cent inhibition relative to cycloheximide control
Settings: 72 h, relative to cycloheximide control, log10 luminescence, inhibitor, M07e %inh, 10 µM
PROPERTY NAME: M07e %inh

These recorded examples may help you get a feel for the data.
INSERT INTO measurements (compound, property_name, reported) VALUES
  ('Cc1cccc(Nc2ccncc2S(=O)(=O)NC(=O)NC(C)C)c1 [SJ000286085-4, TORSEMIDE]', 'M07e %inh', '11.12%'),
  ('CCCCNc1cc(C(=O)O)cc(S(N)(=O)=O)c1Oc1ccccc1 [SJ000285893-8, BUMETANIDE]', 'M07e %inh', '45.31%'),
  ('O=[N+]([O-])c1ccc(Oc2ccc(Br)cc2)c(C(O)P(=O)(O)O)c1 (single isomer, unassigned) [SJ000312207-2, RWJ-60475]', 'M07e %inh', '-2.334%'),
  ('CN1C(C(=O)Nc2ccccn2)=C(O)c2ccccc2S1(=O)=O', 'M07e %inh', '1.469%'),
  ('C/C=C(/C(=C/C)c1ccc(O)cc1)c1ccc(O)cc1 [SJ000285735-4, DIENESTROL]', 'M07e %inh', '-0.9445%'),
  ('COc1ccc2cc(CCC(C)=O)ccc2c1 [SJ000285475-4, NABUMETONE]', 'M07e %inh', '-0.5005%');

# input for lookup
Fill in: M07e %inh of C[C@H](CS)C(=O)N1CCC[C@H]1C(=O)O [SJ000286908-8, CAPTOPRIL] is ___
-2.045%

All values here come from paper PMC6522510.
